For each entry below, report its Mono value.
# Organism: Rattus norvegicus
# method.summary: Open TG-GATES - Regimen: Daily Repeat
# Format: toxicity, organism-based, Sprague-Dawley
# Parameters: regimen Daily Repeat, gender Male, age 6 weeks
# test.conditions: in vivo, po, 0 mg/kg, […], tissue Blood, route gavage, dose level Control, time 28 day
// return numeric value only (unit: %, not printed)

(Q) Could you tell me which Mono is on file for C[C@H](CS)C(=O)N1CCC[C@H]1C(=O)O ?
(A) 4.4

(Q) Which Mono value belongs to COc1ccc2c(c1)c(CC(=O)O)c(C)n2C(=O)c1ccc(Cl)cc1 ?
(A) 4.4

(Q) Please look up its Mono: NC(=O)N1c2ccccc2C=Cc2ccccc21 [CARBAMAZEPINE]
(A) 2.4

(Q) Quick one: Mono of CCCC(CCC)C(=O)O ?
(A) 2.2

(Q) Returns the measured Mono for the input compound. Input: COc1ccc(Cc2nccc3cc(OC)c(OC)cc23)cc1OC
(A) 2

====

# Organism: Rattus norvegicus
# method.summary: Open TG-GATES - Regimen: Daily Repeat
# Format: toxicity, organism-based, Sprague-Dawley
# Parameters: regimen Daily Repeat, gender Male, age 6 weeks
# test.conditions: in vivo, po, 0 mg/kg, 72 h, tissue Blood, route gavage, dose level Control, time 3 day
readout: Ret
Report field: quantity (unit follows the number).

(Q) Data request, read-out Ret, for Cn1c(=O)c2[nH]cnc2n(C)c1=O.O
(A) 7.3%

(Q) What Ret value was documented for this molecule, C[C@H](CS)C(=O)N1CCC[C@H]1C(=O)O ?
(A) 7.6%

(Q) Consider the molecule shown here: COc1ccc2c(c1)c(CC(=O)O)c(C)n2C(=O)c1ccc(Cl)cc1 What is its recorded Ret?
(A) 7.6%

(Q) Entry CC(=O)Oc1ccccc1C(=O)O has what Ret?
(A) 5.9%

(Q) Can you look up the measured Ret of CCCC(CCC)C(=O)O for me?
(A) 6.6%

(Q) Dear colleague, I am looking for the recorded Ret of the following molecule: COc1ccc(Cc2nccc3cc(OC)c(OC)cc23)cc1OC
(A) 6.6%

====

# Species on record: Rattus norvegicus
# method.summary: Open TG-GATES - Regimen: Single
# Type: toxicity, organism-based, Sprague-Dawley
# Design: regimen Single, gender Male, age 6 weeks
# test.conditions: in vivo, po, 100 mg/kg, 3 h, tissue Blood, route gavage, dose level Low
Please respond with reported MCHC for every item in the list.
Unit % implied. Number only.

(Q) Reported MCHC for Clc1ccccc1CN1CCc2sccc2C1 [TICLOPIDINE] : what is it?
(A) 35

(Q) Which MCHC is listed for O=C(O)c1cc(/N=N/c2ccc(S(=O)(=O)Nc3ccccn3)cc2)ccc1O [SULFASALAZINE] ?
(A) 33.9

(Q) Need MCHC of CCc1cc(C(N)=S)ccn1 [ETHIONAMIDE] , thanks.
(A) 34

(Q) Quick one: MCHC of C[C@H](CS)C(=O)N1CCC[C@H]1C(=O)O [CAPTOPRIL] ?
(A) 32.7

====

Please provide measured APTT for the entries that follow.
# Organism: Rattus norvegicus
# method.summary: Open TG-GATES - Regimen: Single
# Format: toxicity, organism-based, Sprague-Dawley
# Design: regimen Single, gender Male, age 6 weeks
# test.conditions: in vivo, po, 300 mg/kg, 6 h, tissue Blood, route gavage, dose level Middle
Give the value in s but do not write s after it.

(Q) Data request, read-out APTT, for CCc1cc(C(N)=S)ccn1 [ETHIONAMIDE]
(A) 18.3

(Q) Can you look up the measured APTT of Clc1ccccc1CN1CCc2sccc2C1 [TICLOPIDINE] for me?
(A) 18.1

(Q) Data request, read-out APTT, for C[C@H](CS)C(=O)N1CCC[C@H]1C(=O)O [CAPTOPRIL]
(A) 16.4

(Q) Given the compound O=C(O)c1cc(/N=N/c2ccc(S(=O)(=O)Nc3ccccn3)cc2)ccc1O [SULFASALAZINE] , what is its reported APTT?
(A) 18.9

Reference source: ChEMBL document CHEMBL3885861
